- Test system: 953936-095-R-J2-PDC spheroids with HUVEC/MSC, viability
- protocol_notes: Anticancer human tumor 953936-095-R-J2-PDC patient-derived cervical squamous cell carcinoma cell line growth inhibition [PI3K]
- setup_conditions: curve of first compound; second compound 1 µM
pIC50: −log10 of the molar value.
recorded_endpoint: pIC50

compound	pIC50
CCN1CCN(Cc2ccc(Nc3ncc(F)c(-c4cc(F)c5nc(C)n(C(C)C)c5c4)n3)nc2)CC1 + Cc1nc(NC(=O)N2CCCC2C(N)=O)sc1-c1ccnc(C(C)(C)C(F)(F)F)c1	> 8.50

Fill in pIC50 for each of the 2 compounds listed.
1. C=CC(=O)N1CCN(c2nc(=O)n(-c3c(C)ccnc3C(C)C)c3nc(-c4c(O)cccc4F)c(F)cc23)C(C)C1 (centres undefined) + COc1c(OCCCN2CCOCC2)ccc2c3n(c(=NC(=O)c4cnc(N)nc4)nc12)CCN3
2. CC(C)NCC(C(=O)N1CCN(c2ncnc3c2C(C)CC3O)CC1)c1ccc(Cl)cc1 (centres undefined) + CC(Nc1ccc2c(c1)OCCn1cc(N3C(=O)OCC3C(F)F)nc1-2)C(N)=O

["> 7.50", "> 7.50"]

// recorded pIC50 for CNC(=O)c1ccc(N2C(=S)N(c3ccc(C#N)c(C(F)(F)F)c3)C(=O)C2(C)C)cc1F + COc1c(OCCCN2CCOCC2)ccc2c3n(c(=NC(=O)c4cnc(N)nc4)nc12)CCN3 : > 7.50

---

Consider the following compounds; for each one, report its pIC50.
- Test system: 953936-095-R-J2-PDC spheroids with HUVEC/MSC, viability
- protocol_notes: Anticancer human tumor 953936-095-R-J2-PDC cell line growth inhibition [PI3K];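 also: spheroids exposed to compounds for seven days before read-out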
- setup_conditions: curve of first compound; second compound 0.1 µM
pIC50: −log10 of the molar value.

compound	assay_value
C#Cc1c(F)ccc2cc(O)cc(-c3ncc4c(N5CC6CCC(C5)N6)nc(OCC56CCCN5CC(F)C6)nc4c3F)c12 (centres undefined) + CC(Nc1ncnc2nc[nH]c12)c1cc2cccc(Cl)c2c(=O)n1-c1ccccc1	< 5.00
CCCS(=O)(=O)Nc1ccc(F)c(C(=O)c2c[nH]c3ncc(-c4ccc(Cl)cc4)cc23)c1F + COc1c(OCCCN2CCOCC2)ccc2c3n(c(=NC(=O)c4cnc(N)nc4)nc12)CCN3	> 7.50

Fill in pIC50 for each of the 2 compounds listed.
1. Cn1ncc(Cl)c1-c1cc(C(=O)NC(CN)Cc2cccc(F)c2)sc1Cl (centres undefined) + COc1c(OCCCN2CCOCC2)ccc2c3n(c(=NC(=O)c4cnc(N)nc4)nc12)CCN3
2. CNC(=O)c1ccc(N2C(=S)N(c3ccc(C#N)c(C(F)(F)F)c3)C(=O)C2(C)C)cc1F + CC(Nc1ncnc2nc[nH]c12)c1cc2cccc(Cl)c2c(=O)n1-c1ccccc1

1. > 7.50
2. < 5.00

---

- Test system: 953936-095-R-J2-PDC spheroids with HUVEC/MSC, viability
- protocol_notes: Anticancer human tumor 953936-095-R-J2-PDC cell line growth inhibition [PI3K];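 also: spheroids exposed to compounds for seven days before read-out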
- setup_conditions: curve of first compound; second compound 1 µM
recorded_endpoint: IC50

Fill in IC50 for each of the 5 compounds listed.
1. Cn1ncc(Cl)c1-c1cc(C(=O)NC(CN)Cc2cccc(F)c2)sc1Cl (stereo not given) + Cc1nc(NC(=O)N2CCCC2C(N)=O)sc1-c1ccnc(C(C)(C)C(F)(F)F)c1
2. Cn1nccc1Nc1nccc(-c2ccn(C(CO)c3ccc(Cl)c(F)c3)c(=O)c2)n1 (stereo not given) + CC(Nc1ncnc2nc[nH]c12)c1cc2cccc(Cl)c2c(=O)n1-c1ccccc1
3. CC1(C)CCC(CN2CCN(c3ccc(C(=O)NS(=O)(=O)c4ccc(NCC5CCOCC5)c([N+](=O)[O-])c4)c(Oc4cnc5[nH]ccc5c4)c3)CC2)=C(c2ccc(Cl)cc2)C1 + COc1c(OCCCN2CCOCC2)ccc2c3n(c(=NC(=O)c4cnc(N)nc4)nc12)CCN3
4. C=CC(=O)N1CCN(c2nc(=O)n(-c3c(C)ccnc3C(C)C)c3nc(-c4c(O)cccc4F)c(F)cc23)C(C)C1 (stereo not given) + CC(Nc1ccc2c(c1)OCCn1cc(N3C(=O)OCC3C(F)F)nc1-2)C(N)=O
5. C[C@@H](NC(=O)c1ncnc(N)c1Cl)c1ncc(C(=O)Nc2cc(C(F)(F)F)c(Cl)cn2)s1 + CC(Nc1ccc2c(c1)OCCn1cc(N3C(=O)OCC3C(F)F)nc1-2)C(N)=O

1. < 31.6 nM
2. > 10000 nM
3. < 31.6 nM
4. < 31.6 nM
5. < 31.6 nM
